B1: COX4I1 (parent)
chain: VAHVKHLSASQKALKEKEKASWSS

Variants of: B1
Experiment: protein stability index of a GFP-peptide fusion (GPS, HEK-293T) (PSI 1-6); higher = more stable;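 further: lentivirally expressed fusions sorted by FACS into six bins by GFP to DsRed ratio, PSI derived from sequencing read proportions per bin multiplied by bin number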
Settings: c terminus: a fixed tail appended
ASSAY_ENDPOINT: protein stability index
API doc: respond with a numeric literal and nothing else, no unit.

What value of protein stability index has been recorded for this entry: "S10Q" 3.12

What value of protein stability index has been recorded for this entry: "S8V" 2.7

What value of protein stability index has been recorded for this entry: "S23Q" 2.81

What value of protein stability index has been recorded for this entry: "H3T" 3.77

What value of protein stability index has been recorded for this entry: "V4Y" 3.27

What value of protein stability index has been recorded for this entry: "Q11M" 3.25

What value of protein stability index has been recorded for this entry: "E18L" 2.69

What value of protein stability index has been recorded for this entry: "S24H" 3.45

What value of protein stability index has been recorded for this entry: "K19W" 3.46

What value of protein stability index has been recorded for this entry: "K12T" 3.32

What value of protein stability index has been recorded for this entry: "K12P" 3.58

What value of protein stability index has been recorded for this entry: "Q11F" 2.56

What value of protein stability index has been recorded for this entry: "S8Y" 2.55

What value of protein stability index has been recorded for this entry: "H3Y" 2.7

What value of protein stability index has been recorded for this entry: "W22H" 4.48

What value of protein stability index has been recorded for this entry: "K12Q" 3.86

What value of protein stability index has been recorded for this entry: "A9H" 3.19

What value of protein stability index has been recorded for this entry: "A9C" 2.42

What value of protein stability index has been recorded for this entry: "K15A" 3.78

What value of protein stability index has been recorded for this entry: "A9N" 3.43

What value of protein stability index has been recorded for this entry: "W22T" 4.96

What value of protein stability index has been recorded for this entry: "K19L" 2.48

What value of protein stability index has been recorded for this entry: "S21F" 3.72

What value of protein stability index has been recorded for this entry: "K15E" 4.08

What value of protein stability index has been recorded for this entry: "S21Y" 3.32

What value of protein stability index has been recorded for this entry: "A13M" 2.95

What value of protein stability index has been recorded for this entry: "L7F" 3.42

What value of protein stability index has been recorded for this entry: "E16R" 2.8

What value of protein stability index has been recorded for this entry: "W22K" 4.78

What value of protein stability index has been recorded for this entry: "S23L" 3.1

What value of protein stability index has been recorded for this entry: "E18K" 2.92

What value of protein stability index has been recorded for this entry: "H3I" 2.58

What value of protein stability index has been recorded for this entry: "H6C" 3.21

What value of protein stability index has been recorded for this entry: "A20V" 3.21

What value of protein stability index has been recorded for this entry: "K15Y" 3

What value of protein stability index has been recorded for this entry: "V4E" 3.71

What value of protein stability index has been recorded for this entry: "K19A" 3.86

What value of protein stability index has been recorded for this entry: "S24F" 3.33

What value of protein stability index has been recorded for this entry: "S10I" 2.37

What value of protein stability index has been recorded for this entry: "H3L" 2.6

What value of protein stability index has been recorded for this entry: "E18D" 3.15

What value of protein stability index has been recorded for this entry: "A2S" 3.25

What value of protein stability index has been recorded for this entry: "S8F" 2.2

What value of protein stability index has been recorded for this entry: "L7S" 3.6

What value of protein stability index has been recorded for this entry: "Q11G" 2.67

What value of protein stability index has been recorded for this entry: "L14D" 3.92

What value of protein stability index has been recorded for this entry: "L14H" 3.61

What value of protein stability index has been recorded for this entry: "A2Y" 2.3

What value of protein stability index has been recorded for this entry: "E18M" 2.13

What value of protein stability index has been recorded for this entry: "K5D" 3.27

What value of protein stability index has been recorded for this entry: "A20F" 3.13

What value of protein stability index has been recorded for this entry: "S24W" 2.95

What value of protein stability index has been recorded for this entry: "L7W" 2.84

What value of protein stability index has been recorded for this entry: "S10H" 3.05

What value of protein stability index has been recorded for this entry: "A9F" 3.55

What value of protein stability index has been recorded for this entry: "S23M" 3.77

What value of protein stability index has been recorded for this entry: "E16Y" 2.56

What value of protein stability index has been recorded for this entry: "K15G" 3.18

What value of protein stability index has been recorded for this entry: "E18Y" 2.67

What value of protein stability index has been recorded for this entry: "S10E" 3.95

What value of protein stability index has been recorded for this entry: "S10L" 2.58

What value of protein stability index has been recorded for this entry: "V1W" 2.41

What value of protein stability index has been recorded for this entry: "K12A" 2.61

What value of protein stability index has been recorded for this entry: "K19Q" 3.02

What value of protein stability index has been recorded for this entry: "W22A" 5.14

What value of protein stability index has been recorded for this entry: "V4M" 3.55

What value of protein stability index has been recorded for this entry: "A9E" 4.11

What value of protein stability index has been recorded for this entry: "H3F" 2.52

What value of protein stability index has been recorded for this entry: "S21H" 3.46

What value of protein stability index has been recorded for this entry: "E18W" 2.69

What value of protein stability index has been recorded for this entry: "K17C" 2.83

What value of protein stability index has been recorded for this entry: "K15N" 3.77

What value of protein stability index has been recorded for this entry: "S23N" 4

What value of protein stability index has been recorded for this entry: "H6W" 2.32

What value of protein stability index has been recorded for this entry: "A20C" 3.28

What value of protein stability index has been recorded for this entry: "E16D" 3.48

What value of protein stability index has been recorded for this entry: "W22P" 5.12

What value of protein stability index has been recorded for this entry: "A9T" 2.93

What value of protein stability index has been recorded for this entry: "L7R" 2.99

What value of protein stability index has been recorded for this entry: "A13E" 3.64

What value of protein stability index has been recorded for this entry: "S23A" 1.82

What value of protein stability index has been recorded for this entry: "H6E" 3.87

What value of protein stability index has been recorded for this entry: "A13K" 3.16

What value of protein stability index has been recorded for this entry: "S21D" 4.18

What value of protein stability index has been recorded for this entry: "E16Q" 2.72

What value of protein stability index has been recorded for this entry: "S21R" 3.49

What value of protein stability index has been recorded for this entry: "A13W" 2.08

What value of protein stability index has been recorded for this entry: "H6V" 2.96

What value of protein stability index has been recorded for this entry: "K5C" 2.61

What value of protein stability index has been recorded for this entry: "E16F" 2.21

What value of protein stability index has been recorded for this entry: "K15W" 2.77
